# target_desc: HLA-DR4 (HLA-DRA*0101,-DRB1*0401) (Homo sapiens, UniProt P01903+P01911, A100K/A169T/F76Y/I96L/K127E/L162R/M171V/N62H/P40V/Q125Y/R42H/S133A/S149N/S66Y/V115G/V209L/W38E)
# test_summary: Competition fluorescence polarization peptide binding assay, HLA-DR4 with HLA-DM
Ends that are not written are not given here.
assay_readout: IC50

input: Give recorded IC50. Ac-PGALLGAPPPLVPAP [pgaLLGAPPPLVpap]
output: > 100 µM

###

Provide the reported log10 of IC50 of each item.
# target_desc: HLA-DR1 (HLA-DRA*0101,-DRB1*0101) (Homo sapiens, UniProt P01903+P01911, A100R/D57E/F55L/F60I/F76Y/I96L/L162R/M171V/P40L/Q125E/R42F/V115G/Y59C)
# test_summary: Competition fluorescence polarization peptide binding assay, HLA-DR1
# experimental_parameters: competition with Alexa488-HA peptide 25 nM, HLA-DR1 100 nM, 3 days at 37°C, citrate pH 5/5.5; mean of single fit to triplicate values
Ends that are not written are not given here.
Response schema: value (number) is log10 of IC50 in units of µM.

Field: example entries. Status: answers known.
{"columns": ["substance", "meas_value"],
 "data": [
  ["Ac-PQGFQGNPGEPGE [pqgFQGNPGEPGe]", -0.10],
  ["Ac-HQVSINNTAVMQRL [hqVSINNTAVMqrl]", 1.62],
  ["Ac-EDTFAHLTPTPT [edtFAHLTPTPT]", 0.23],
  ["MLQGTSSVLLLWG-NH2 [mLQGTsSVLLlwg]", 1.80],
  ["Ac-KNFASVQGVSLESG [knFASVQGVSLesg]", -0.38],
  ["Ac-GALLGAPPPLVPAP [gaLLGAPPPLVpap]", 1.03]
]}

Below is a list of substances. For each, state its recorded log10 of IC50.
1. NYAILRNLQP [nYAILRNLQP]
2. Ac-NGVVGPTGPVGAAGPA-NH2 [ngVVGPTGPVGaagpa]

output:
[1.74, 1.26]
